# System: NCI-H358
# Measurement Protocol: Antiproliferative activity against human NCI-H358 cells assessed as inhibition of cell growth incubated for 48 hrs by CCK8 assay
# Type: functional, cell-based
# Assay Setup: NCI-H358, 48 h
pIC50: −log10 of the molar value.
Quantity Name: pIC50

Use these answered entries as a reference point.
CCCCCCCC[P+](CCCCCCCC)(CCCCCCCC)CCCCC(=O)O[C@H]1CC[C@@]2(C)C(=CC[C@H]3[C@@H]4C[C@@H]5O[C@]6(CC[C@@H](C)CO6)[C@@H](C)[C@@H]5[C@@]4(C)CC[C@@H]32)C1.[Br-] | 4.57
C[C@@H]1CC[C@@]2(OC1)O[C@H]1C[C@H]3[C@@H]4CC=C5C[C@@H](OC(=O)CCCC[P+](c6ccccc6)(c6ccccc6)C6CCCCC6)CC[C@]5(C)[C@H]4CC[C@]3(C)[C@H]1[C@@H]2C.[Br-] | 5.45
C[C@@H]1CC[C@@]2(OC1)O[C@H]1C[C@H]3[C@@H]4CC=C5C[C@@H](OC(=O)CCCC[P+](C6CCCCC6)(C6CCCCC6)C6CCCCC6)CC[C@]5(C)[C@H]4CC[C@]3(C)[C@H]1[C@@H]2C.[Br-] | 5.39

[1] C[C@@H]1CC[C@@]2(OC1)O[C@H]1C[C@H]3[C@@H]4CC=C5C[C@@H](OC(=O)CCCC[P+](c6ccccc6)(c6ccccc6)c6cccc(-c7ccccc7)c6)CC[C@]5(C)[C@H]4CC[C@]3(C)[C@H]1[C@@H]2C.[Br-]
[2] C[C@@H]1CC[C@@]2(OC1)O[C@H]1C[C@H]3[C@@H]4CC=C5C[C@@H](OC(=O)c6nccnc6C(=O)NO)CC[C@]5(C)[C@H]4CC[C@]3(C)[C@H]1[C@@H]2C
[3] C[C@@H]1CC[C@@]2(OC1)O[C@H]1C[C@H]3[C@@H]4CC=C5C[C@@H](OC(=O)CCCCC(=O)NO)CC[C@]5(C)[C@H]4CC[C@]3(C)[C@H]1[C@@H]2C
Query: # desc sort on pIC50 across 3 compounds Field: ranking. Enter the labels in the order requested.
Reply: 1, 3, 2
(1: 5.44, 3: 4.90, 2: 4.45)
